assay: survival rescue of mitochondrial mutant cells in low glucose, primary screen, MELAS cybrids, Rieske KO mouse fibroblasts, CellTiter-Glo (AID 1508586); conditions: MELAS cybrid survival, CellTiter-Glo 48 h, stronger effect = higher value;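 further: z relative to plate mean and SD of compound and empty wells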
Classification field: satisfied = z-score at or over -0.4; not satisfied = z-score under -0.4.

• Cn1cc(C2=C(c3cn(C4CCN(Cc5ccccn5)CC4)c4ccccc34)C(=O)NC2=O)c2ccccc21 = satisfied
• O=C1CCCN1CC#CCN1CCCC1 = satisfied
• CCC1C=CC=CCC(C)C(O)[C@@](C)(O)C(=O)C(C)[C@@H](O)C(C)C(=O)C(C)C(O)C(C)C=CC(=O)OC2C(C)[C@]3(CCC(C)C(CC(C)O)O3)OC(CC1)[C@H]2C (some centres undefined) = satisfied
• c1ccc2c(c1)sc1ccccc12 = satisfied
• Oc1ccc2c3c1O[C@H]1c4[nH]c5ccccc5c4C[C@@]4(O)[C@@H](C2)N(CC2CC2)CC[C@]314 = satisfied
• C#C[C@@]1(O)C=C[C@H]2[C@@H]3CCC4=CC(=O)CC[C@@H]4[C@@H]3CC[C@@]21CC = not satisfied
• C[C@]12CC[C@H](O)C[C@H]1CC[C@@H]1[C@@H]2CC[C@]2(C)[C@@H](C3=CC(=O)OC3)CC[C@]12O = satisfied
• COC1CCC(OC2C[C@H]([C@]3(C)CC[C@]4(CC(O)C(C)[C@@H](C(C)C=C(C)C(=O)C(C)CC(C)C(=O)O)O4)O3)O[C@]3(O[C@@H]([C@H]4O[C@@](O)(CO)C(C)CC4C)CC3C)C2C)OC1C (some centres undefined) = satisfied
• COc1ccc(CCN)cc1OC = satisfied
• O[C@@H]1CCCC[C@H]1N1CCC(c2ccccc2)CC1 = not satisfied
• NCC(CC(=O)O)c1ccc(Cl)cc1 (centres undefined) = not satisfied
• Clc1ccc(C(OCCN2CCCCC2)c2ccccc2)cc1 (centres undefined) = not satisfied
• C[C@@H]1O[C@@H](O[C@@H]2C=C3CC[C@@H]4[C@H](CC[C@]5(C)[C@@H](c6ccc(=O)oc6)CC[C@]45O)[C@@]3(C)CC2)[C@H](O)[C@H](O)[C@H]1O = satisfied
• C=CCN1CC[C@]23c4c5ccc(O)c4O[C@H]2/C(=N/N=C2\CC[C@@]4(O)[C@H]6Cc7ccc(O)c8c7[C@@]4(CCN6CC=C)[C@H]2O8)CC[C@@]3(O)[C@H]1C5 = not satisfied
• C[C@]12CC[C@H]3[C@@H](CCC4=CC(=O)CC[C@@H]43)[C@@H]1CC[C@@H]2O = satisfied
• CN1CCCCC1Cn1cc(C(=O)c2cc([N+](=O)[O-])ccc2I)c2ccccc21 (centres undefined) = satisfied
• COc1ccc(OC)c(C(O)C(C)N)c1 (centres undefined) = satisfied
• CCCC[N+]1(C)[C@@H]2CC(OC(=O)C(CO)c3ccccc3)C[C@H]1[C@@H]1O[C@@H]12 (some centres undefined) = satisfied
• C=C(C)[C@@H]1C2C(=O)O[C@H]1[C@H]1OC(=O)[C@@]34OC3C[C@]2(O)[C@@]14C (some centres undefined) = satisfied
• CCN(CC)C(=O)c1ccc(C2=CC3(CCNCC3)Oc3cccc(O)c32)cc1 = not satisfied
• NCCc1ccc(S(=O)(=O)F)cc1 = satisfied
• COC1=C[C@@H]2C3Cc4ccc(OC)c(O)c4[C@]2(CCN3C)CC1=O = satisfied
• NCCc1ccc(S(N)(=O)=O)cc1 = satisfied
• C[C@H]1O[C@H](OC2[C@@H](O)[C@@H](O)C(O)[C@H](O)[C@H]2O)[C@@H](N)C[C@@H]1N=C(N)C(=O)O (some centres undefined) = not satisfied
• CCOC(=O)c1cncn1C(C)c1ccccc1 (centres undefined) = not satisfied
• NC(=O)CS(=O)C(c1ccccc1)c1ccccc1 (centres undefined) = satisfied
• CC1=C(C(=O)Nc2ccccc2)SCCO1 = satisfied
• C[C@@H]1CN(C2CCC(C#N)(c3ccc(F)cc3)CC2)CC[C@]1(C(=O)O)c1ccccc1 (some centres undefined) = not satisfied
• CNC(=O)Oc1cc(C)c(/C=C/c2cncc(C(=O)NC)c2)c(C)c1 = not satisfied

---

Listing of recorded viability decrease (inhibition) by entry.
assay: decreased DLD-1 cellular survival, CellTiter-Glo luminescent readout, NPC compound collection, primary HTS (AID 1117346); conditions: DLD-1 viability, CellTiter-Glo luminescence; at 20 µM (top of the series)
Active and inactive are the calls of the source.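 Rule for the calls: active = compounds that lower survival of DLD-1 colon cancer cells in the luminescence readout, no cutoff given; inactive = the rest.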
OBSERVED_PROPERTY: viability decrease (inhibition)

* CCCC(C)C1(CC)C(=O)N=C(S)NC1=O (stereo not drawn) | 3.85% (inactive)
* O=c1[nH]oc2c1CCNC2 | 2.4% (inactive)
* CCC1(C2=NCCN2)Cc2ccccc2O1 (stereo not drawn) | 0.7% (inactive)

---

assay: sensitizers of A549 cells to miR-34 induction, primary screen, imaging, A549 dox-inducible miR-34, nuclei and caspase counts (AID 1347080); conditions: A549 miR-34 inducible, Hoechst nuclei count, 48 h; measured here: total cells without miR-34 induction
Please assign 0.0 whenever cell count is at or above 6000, and 1.0 whenever it is below.

- CCCN(CCCN)N(O)N=O: 1.0
- COc1cc(C(O)CN)ccc1O (stereo not given): 0.0
- CCOC(=O)c1cncn1[C@H](C)c1ccccc1: 0.0

---

assay: growth inhibition of DIPG glioma cells, dose response, cell-based, SU-DIPG-XVII, MIPE5.0, CellTiter-Glo, qHTS (AID 1347060); conditions: SU-DIPG-XVII viability, CellTiter-Glo ATP luminescence;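 on AC50: cells exposed to compound for 48 hours before viability readout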
Results filed as inconclusive are left out. The source made the active and inactive calls. No cut-off is given here; in the data, nearly all actives have AC50 up to about 26 µM.
Outcome codes: active, inactive

- CCC1(c2ccc(N)cc2)CCC(=O)NC1=O (stereo unspecified): inactive
- C[C@]12CC[C@H]3[C@@H](CCC4=CC(=O)CC[C@@]43C)[C@@H]1CC[C@@H]2OC(=O)CCC1CCCC1: inactive
- COc1ccc(C(=O)N2CCCC2=O)cc1: inactive
- C=C(C)[C@@H]1CCC(C)=C[C@H]1c1c(O)cc(CCCCC)cc1O: active
- CC1=C2C[C@H]3[C@@H](CC=C4C[C@@H](O)CC[C@@]43C)[C@@H]2CC[C@]12O[C@@H]1C[C@H](C)CN[C@H]1[C@H]2C: inactive
- Cc1ccccn1.[Cl][Pt][Cl].[NH2-]: inactive

---

test: liver-stage malaria parasite growth inhibition, primary screen, cell-based, HepG2, luciferase luminescence, HepG2 viability (AID 624349);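 further: 100% = mean of DMSO negative control wells on the same plate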; conditions: P. berghei liver stage in HepG2, luciferase luminescence, concentration not given here; stronger effect = lower value
Listing of recorded parasite load remaining by entry.
OBSERVED_PROPERTY: parasite load remaining (%)

- NC(N)=NOCC[C@@H](N)C(=O)O: 70.5
- O=c1ccc2cc(O[C@@H]3O[C@H](CO)[C@@H](O)[C@H](O)[C@H]3O)c(O)cc2o1: 71.6
- C=C[C@@H]1CN2CCC1C[C@@H]2[C@H](O)c1ccnc2ccccc12 (some centres not stated): 71
- CN1CCN(C(=O)O[C@H]2c3nccnc3C(=O)N2c2ccc(Cl)cn2)CC1: 62.4
- CCCCOC(=O)c1ccccc1C(=O)OCCCC: 68.9
- COc1ccc2c(c1OC)CN1CCc3cc4c(cc3C1C2)OCO4 (configuration not stated): 82.7
- O=c1cccc2n1CC1CNC[C@H]2C1: 134
- CCC1(C)CC(=O)NC(=O)C1: 94.7
- C[C@]12CC[C@H]3[C@@H](CCC4=CC(=O)CC[C@@]43C)[C@@H]1CC[C@@H]2O: 61.8
- C[C@@H]1CC[C@H]2[C@@H](C)C(=O)O[C@@H]3OC4(C)CC[C@@H]1[C@]32OO4: 71.2
- c1ccc2c(c1)Nc1ccccc1S2: 39.8
- c1ccc(C2CC2)c(OCC2=NCCN2)c1: 45.2
- C=C1CC2C(CC[C@]3(C)C(=O)CCC23)[C@@]2(C)C=CC(=O)C=C12 (some centres not stated): 9.27
- O=[N+]([O-])/C=C/c1ccc2c(c1)OCO2: 42.5
- Cc1ncc(CNC(=O)N(CCCl)N=O)c(N)n1: 130
- C[C@]12CC3SC3C[C@@H]1CC[C@@H]1[C@@H]2CC[C@]2(C)[C@@H](O)CC[C@@H]12 (some centres not stated): 87.8
- O=c1cccc2n1C[C@H]1CNCC2C1: 64.2

---

test: Cy5 fluorescence interference with SSB-bound oligo, artefact control for HCV NS3 helicase inhibitor project, biochemical, NIH Clinical Collection, E. coli SSB (AID 743268)
OBSERVED_PROPERTY: fluorescence ratio

• CC[C@@H](C(N)=O)N1CCCC1=O = 1.01
• CC(O)(CS(=O)(=O)c1ccc(F)cc1)C(=O)Nc1ccc(C#N)c(C(F)(F)F)c1 (stereo not drawn) = 1
• O=c1c2ccccc2[se]n1-c1ccccc1 = 1
• CC[C@@H]1C=CC=CC[C@H](C)[C@@H](O)[C@@H](C)C(=O)[C@H](C)[C@@H](O)[C@H](C)C(=O)[C@H](C)[C@@H](O)[C@H](C)C=CC(=O)O[C@H]2[C@@H](C)[C@@H](CC1)O[C@@]1(CC[C@@H](C)[C@@H](C[C@H](C)O)O1)[C@@H]2C = 1.01
• C[C@]12CC[C@H]3[C@@H](CCC4=CC(=O)CC[C@@H]43)[C@@H]1CC[C@@H]2O = 1
• C[N+]1(CCC(C(N)=O)(c2ccccc2)c2ccccc2)CCCCC1 = 1.01
• CN1CC[C@@H](c2ccc(F)cc2)[C@H](COc2ccc3c(c2)OCO3)C1 = 1.01
• CCN(CC)CCOC(=O)C(O)(c1ccccc1)c1ccccc1 = 0.99
